Measured values drawn from paper PMC3197600 for this set.

assay target: p57N2 (pandemic A/RI/5+/1957 H2N2 N2 neuraminidase) (Influenza A virus)
assay notes: biochemical
For each of the compounds below, state its IC50.
Numbers only, in nM.

Consider the following illustrative entries.
{"columns": ["compound", "measure unit", "test result"],
 "data": [
  ["CCOC(=O)C1=C[C@@H](OC(CC)CC)[C@H](NC(C)=O)[C@@H](N)C1", "nM", 0.79],
  ["CO[C@@H]([C@@H]1OC(C(=O)O)=C[C@H](NC(=N)N)[C@H]1NC(C)=O)[C@H](O)CO", "nM", 3.12]
]}

Attention now turns to another entry.
May I ask what IC50 has been recorded for [H]/N=C(\N)N[C@H]1C=C(C(=O)O)O[C@@H]([C@H](OC)[C@H](O)COC(=O)CCCCCCC)[C@@H]1NC(C)=O [CS-8958, laninamivir octanoate] ? 129
